run-description: Oral bioavailability and pharmacokinetics in Slc3a1-knockout mice
Format: in vivo
conditions: male, mouse, plasma, 150 umol/kg
readout-kind: CL/F (mL/min/kg)
// note: answer is a bare numeric in mL/min/kg

# input compound: N[C@@H](CSSC[C@H](N)C(=O)N1CCC2(CCCN2)CC1)C(=O)N1CCC2(CCCN2)CC1 ; wanted: its CL/F 133
